B1: library; a variant is named by its letters at N, in order (parent)
chain: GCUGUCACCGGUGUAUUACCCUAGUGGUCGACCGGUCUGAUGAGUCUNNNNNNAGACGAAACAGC

Variants of: B1
procedure_details: normalized RNA/DNA level with ligand (relative to sTRSVctl = 100) (log10 (% of sTRSVctl)); ligand: hypoxanthine (xanthine aptamer); higher = less ribozyme self-cleavage, higher mRNA level
details: ligand concentration (+) RNA-Seq: 5 mM, HEK293T, reporter: mCherry (pCS4076), ligand present: yes
attribute_measured: normalized RNA/DNA level with ligand (log10)

[
  {
    "query_sequence": "GCUGUCACCGGUGUAUUACCCUAGUGGUCGACCGGUCUGAUGAGUCUUAUCAUAGACGAAACAGC",
    "measured_number": 1.92
  },
  {
    "query_sequence": "GCUGUCACCGGUGUAUUACCCUAGUGGUCGACCGGUCUGAUGAGUCUGGAUACAGACGAAACAGC",
    "measured_number": 1.93
  },
  {
    "query_sequence": "GCUGUCACCGGUGUAUUACCCUAGUGGUCGACCGGUCUGAUGAGUCUGACACGAGACGAAACAGC",
    "measured_number": 1.9
  },
  {
    "query_sequence": "GCUGUCACCGGUGUAUUACCCUAGUGGUCGACCGGUCUGAUGAGUCUUGAACCAGACGAAACAGC",
    "measured_number": 1.97
  },
  {
    "query_sequence": "GCUGUCACCGGUGUAUUACCCUAGUGGUCGACCGGUCUGAUGAGUCUCCUGGAAGACGAAACAGC",
    "measured_number": 2
  },
  {
    "query_sequence": "GCUGUCACCGGUGUAUUACCCUAGUGGUCGACCGGUCUGAUGAGUCUAGAAGAAGACGAAACAGC",
    "measured_number": 1.92
  },
  {
    "query_sequence": "GCUGUCACCGGUGUAUUACCCUAGUGGUCGACCGGUCUGAUGAGUCUCCCCAAAGACGAAACAGC",
    "measured_number": 1.92
  },
  {
    "query_sequence": "GCUGUCACCGGUGUAUUACCCUAGUGGUCGACCGGUCUGAUGAGUCUCGCACUAGACGAAACAGC",
    "measured_number": 2
  },
  {
    "query_sequence": "GCUGUCACCGGUGUAUUACCCUAGUGGUCGACCGGUCUGAUGAGUCUUAAGCAAGACGAAACAGC",
    "measured_number": 1.89
  },
  {
    "query_sequence": "GCUGUCACCGGUGUAUUACCCUAGUGGUCGACCGGUCUGAUGAGUCUAUAGAAAGACGAAACAGC",
    "measured_number": 1.87
  },
  {
    "query_sequence": "GCUGUCACCGGUGUAUUACCCUAGUGGUCGACCGGUCUGAUGAGUCUGAGUCCAGACGAAACAGC",
    "measured_number": 2.02
  },
  {
    "query_sequence": "GCUGUCACCGGUGUAUUACCCUAGUGGUCGACCGGUCUGAUGAGUCUAUCCUUAGACGAAACAGC",
    "measured_number": 1.98
  },
  {
    "query_sequence": "GCUGUCACCGGUGUAUUACCCUAGUGGUCGACCGGUCUGAUGAGUCUGGUGCCAGACGAAACAGC",
    "measured_number": 2.01
  },
  {
    "query_sequence": "GCUGUCACCGGUGUAUUACCCUAGUGGUCGACCGGUCUGAUGAGUCUGAGUUCAGACGAAACAGC",
    "measured_number": 1.92
  },
  {
    "query_sequence": "GCUGUCACCGGUGUAUUACCCUAGUGGUCGACCGGUCUGAUGAGUCUACCUGCAGACGAAACAGC",
    "measured_number": 1.99
  },
  {
    "query_sequence": "GCUGUCACCGGUGUAUUACCCUAGUGGUCGACCGGUCUGAUGAGUCUUGUGCCAGACGAAACAGC",
    "measured_number": 1.98
  },
  {
    "query_sequence": "GCUGUCACCGGUGUAUUACCCUAGUGGUCGACCGGUCUGAUGAGUCUUCGAGGAGACGAAACAGC",
    "measured_number": 1.89
  },
  {
    "query_sequence": "GCUGUCACCGGUGUAUUACCCUAGUGGUCGACCGGUCUGAUGAGUCUCGAUCUAGACGAAACAGC",
    "measured_number": 1.95
  },
  {
    "query_sequence": "GCUGUCACCGGUGUAUUACCCUAGUGGUCGACCGGUCUGAUGAGUCUCACCCAAGACGAAACAGC",
    "measured_number": 1.96
  },
  {
    "query_sequence": "GCUGUCACCGGUGUAUUACCCUAGUGGUCGACCGGUCUGAUGAGUCUUCGGCGAGACGAAACAGC",
    "measured_number": 1.98
  },
  {
    "query_sequence": "GCUGUCACCGGUGUAUUACCCUAGUGGUCGACCGGUCUGAUGAGUCUUGGUCAAGACGAAACAGC",
    "measured_number": 1.97
  },
  {
    "query_sequence": "GCUGUCACCGGUGUAUUACCCUAGUGGUCGACCGGUCUGAUGAGUCUAUUUAAAGACGAAACAGC",
    "measured_number": 1.9
  },
  {
    "query_sequence": "GCUGUCACCGGUGUAUUACCCUAGUGGUCGACCGGUCUGAUGAGUCUAUAUACAGACGAAACAGC",
    "measured_number": 1.88
  },
  {
    "query_sequence": "GCUGUCACCGGUGUAUUACCCUAGUGGUCGACCGGUCUGAUGAGUCUCGGGCGAGACGAAACAGC",
    "measured_number": 1.97
  },
  {
    "query_sequence": "GCUGUCACCGGUGUAUUACCCUAGUGGUCGACCGGUCUGAUGAGUCUUAUUAUAGACGAAACAGC",
    "measured_number": 1.93
  },
  {
    "query_sequence": "GCUGUCACCGGUGUAUUACCCUAGUGGUCGACCGGUCUGAUGAGUCUGCGAAAAGACGAAACAGC",
    "measured_number": 1.88
  },
  {
    "query_sequence": "GCUGUCACCGGUGUAUUACCCUAGUGGUCGACCGGUCUGAUGAGUCUUGUGGGAGACGAAACAGC",
    "measured_number": 1.93
  },
  {
    "query_sequence": "GCUGUCACCGGUGUAUUACCCUAGUGGUCGACCGGUCUGAUGAGUCUCGGGCCAGACGAAACAGC",
    "measured_number": 1.94
  },
  {
    "query_sequence": "GCUGUCACCGGUGUAUUACCCUAGUGGUCGACCGGUCUGAUGAGUCUGUGACUAGACGAAACAGC",
    "measured_number": 1.92
  },
  {
    "query_sequence": "GCUGUCACCGGUGUAUUACCCUAGUGGUCGACCGGUCUGAUGAGUCUUUUCAGAGACGAAACAGC",
    "measured_number": 1.9
  },
  {
    "query_sequence": "GCUGUCACCGGUGUAUUACCCUAGUGGUCGACCGGUCUGAUGAGUCUUUCCUUAGACGAAACAGC",
    "measured_number": 1.92
  },
  {
    "query_sequence": "GCUGUCACCGGUGUAUUACCCUAGUGGUCGACCGGUCUGAUGAGUCUAGGGUAAGACGAAACAGC",
    "measured_number": 1.95
  },
  {
    "query_sequence": "GCUGUCACCGGUGUAUUACCCUAGUGGUCGACCGGUCUGAUGAGUCUAAUGAAAGACGAAACAGC",
    "measured_number": 1.87
  },
  {
    "query_sequence": "GCUGUCACCGGUGUAUUACCCUAGUGGUCGACCGGUCUGAUGAGUCUAGUGAAAGACGAAACAGC",
    "measured_number": 1.9
  },
  {
    "query_sequence": "GCUGUCACCGGUGUAUUACCCUAGUGGUCGACCGGUCUGAUGAGUCUGGGCUGAGACGAAACAGC",
    "measured_number": 1.97
  },
  {
    "query_sequence": "GCUGUCACCGGUGUAUUACCCUAGUGGUCGACCGGUCUGAUGAGUCUUGGGAGAGACGAAACAGC",
    "measured_number": 1.9
  },
  {
    "query_sequence": "GCUGUCACCGGUGUAUUACCCUAGUGGUCGACCGGUCUGAUGAGUCUCCAAAAAGACGAAACAGC",
    "measured_number": 1.92
  },
  {
    "query_sequence": "GCUGUCACCGGUGUAUUACCCUAGUGGUCGACCGGUCUGAUGAGUCUAAAGAAAGACGAAACAGC",
    "measured_number": 1.9
  },
  {
    "query_sequence": "GCUGUCACCGGUGUAUUACCCUAGUGGUCGACCGGUCUGAUGAGUCUAUAAUUAGACGAAACAGC",
    "measured_number": 1.92
  },
  {
    "query_sequence": "GCUGUCACCGGUGUAUUACCCUAGUGGUCGACCGGUCUGAUGAGUCUGGUCCUAGACGAAACAGC",
    "measured_number": 1.94
  },
  {
    "query_sequence": "GCUGUCACCGGUGUAUUACCCUAGUGGUCGACCGGUCUGAUGAGUCUAGCGAUAGACGAAACAGC",
    "measured_number": 1.9
  },
  {
    "query_sequence": "GCUGUCACCGGUGUAUUACCCUAGUGGUCGACCGGUCUGAUGAGUCUAGUCCCAGACGAAACAGC",
    "measured_number": 1.94
  },
  {
    "query_sequence": "GCUGUCACCGGUGUAUUACCCUAGUGGUCGACCGGUCUGAUGAGUCUGUCUGGAGACGAAACAGC",
    "measured_number": 1.88
  },
  {
    "query_sequence": "GCUGUCACCGGUGUAUUACCCUAGUGGUCGACCGGUCUGAUGAGUCUUACAGUAGACGAAACAGC",
    "measured_number": 1.81
  },
  {
    "query_sequence": "GCUGUCACCGGUGUAUUACCCUAGUGGUCGACCGGUCUGAUGAGUCUUCACAGAGACGAAACAGC",
    "measured_number": 1.87
  },
  {
    "query_sequence": "GCUGUCACCGGUGUAUUACCCUAGUGGUCGACCGGUCUGAUGAGUCUUCCUAUAGACGAAACAGC",
    "measured_number": 1.96
  }
]
